The origin of these recorded values is patent US20260028424A1.

Biological target: T1, human CD203c His-tagged recombinant protein (human, UniProt O14638 49-875, limits assumed)
T1 construct: also called ENPP3; not shown: His tag
T1 sequence (looked up): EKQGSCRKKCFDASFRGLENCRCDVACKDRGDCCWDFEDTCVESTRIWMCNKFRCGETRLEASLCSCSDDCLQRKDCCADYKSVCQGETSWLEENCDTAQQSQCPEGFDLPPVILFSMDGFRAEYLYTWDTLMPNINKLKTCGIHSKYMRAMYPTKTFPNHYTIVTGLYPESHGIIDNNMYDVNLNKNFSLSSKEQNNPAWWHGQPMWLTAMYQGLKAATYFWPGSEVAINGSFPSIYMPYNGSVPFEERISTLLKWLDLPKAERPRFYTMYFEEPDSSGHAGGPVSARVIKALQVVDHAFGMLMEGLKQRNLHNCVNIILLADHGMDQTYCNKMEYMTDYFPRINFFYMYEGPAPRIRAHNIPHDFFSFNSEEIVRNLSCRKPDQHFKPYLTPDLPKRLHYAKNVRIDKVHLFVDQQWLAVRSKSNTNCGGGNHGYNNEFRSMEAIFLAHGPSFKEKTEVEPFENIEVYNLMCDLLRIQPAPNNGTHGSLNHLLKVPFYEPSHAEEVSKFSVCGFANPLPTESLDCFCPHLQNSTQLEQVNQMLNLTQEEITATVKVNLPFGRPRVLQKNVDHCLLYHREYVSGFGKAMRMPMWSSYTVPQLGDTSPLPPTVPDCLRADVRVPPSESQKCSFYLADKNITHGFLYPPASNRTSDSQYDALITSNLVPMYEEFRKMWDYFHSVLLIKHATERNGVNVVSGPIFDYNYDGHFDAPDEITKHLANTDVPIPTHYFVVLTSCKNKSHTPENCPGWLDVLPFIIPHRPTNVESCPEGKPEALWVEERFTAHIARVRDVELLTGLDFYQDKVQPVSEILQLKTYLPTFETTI
Test: direct binding ELISA on human CD203c, absorbance (blank corrected)
Measure: binding result

binding result lookup needed for 13 (antibody, V domains shown, also called variant 13; 13 VH domain) VH: EVQLVQSGAEVKKPGESLKISCKGSGYRFTSYWIGWVRQMPGKGLEWMGIIYPGDSDTRYSPSFQGQVTISADKSISTAYLQWSSLKASDTAMYYCARKDYYYGSMDVWGQGTTVTVSS VL: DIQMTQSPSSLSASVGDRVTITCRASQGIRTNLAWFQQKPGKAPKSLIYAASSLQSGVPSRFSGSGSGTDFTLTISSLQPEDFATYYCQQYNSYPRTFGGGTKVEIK , thanks.
binds

binding result lookup needed for 14 (antibody, V domains shown, also called variant 14; 14 VH domain) VH: EVQLVQSGAEVKKPGESLKISCKGSGYRFTSYWIGWVRQMPGKGLEWMGIIYPGDSDTRYSPSFQGQVTISADKSISTAYLQWSSLKASDTAMYYCARKDYYYGALDVWGQGTTVTVSS VL: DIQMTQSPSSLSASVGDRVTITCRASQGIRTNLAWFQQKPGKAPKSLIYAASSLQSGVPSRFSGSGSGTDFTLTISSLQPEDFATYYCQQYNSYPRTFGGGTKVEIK , thanks.
binds
